- system_name: Adenosine receptors; A1 & A3 (Homo sapiens) (UniProt P30542+P0DMS8)
- assay_name: Ratio of binding affinity of human A1 receptor to that of human A3 receptor
- Assay type: protein assay
Reported Ratio by item:
reported_endpoint: Ratio

| input_smiles | reported_endpoint | data_value |
| --- | --- | --- |
| Nc1nc2n[nH]cc2c2nc(-c3ccco3)nn12 | Ratio | 0.4 |
| O=C(Nc1cccc(Cl)c1)Nc1nc2nn(CCCc3ccccc3)cc2c2nc(-c3ccco3)nn12 | Ratio | 25 |
| Nc1nc2nn(CCc3cccc4ccccc34)cc2c2nc(-c3ccco3)nn12 | Ratio | 0.1 |
| Nc1nc2nn(CCc3cc(Br)c(Br)cc3Br)cc2c2nc(-c3ccco3)nn12 | Ratio | 0.06 |
| CC(C)=CCn1cc2c(nc(N)n3nc(-c4ccco4)nc23)n1 | Ratio | 0.006 |
| O=C(Nc1cccc(Cl)c1)Nc1nc2n[nH]cc2c2nc(-c3ccco3)nn12 | Ratio | 476 |
| COc1ccc(NC(=O)Nc2nc3nn(CCc4cc(Br)c(Br)cc4Br)cc3c3nc(-c4ccco4)nn23)cc1 | Ratio | 10.2 |
| CCCn1cc2c(nc(NC(=O)Nc3cccc(Cl)c3)n3nc(-c4ccco4)nc23)n1 | Ratio | 33 |
| CC(C)=CCn1cc2c(nc(NC(=O)Nc3cccc(Cl)c3)n3nc(-c4ccco4)nc23)n1 | Ratio | 6.4 |
| CCn1cc2c(nc(N)n3nc(-c4ccco4)nc23)n1 | Ratio | 0.015 |

###

- system_name: Adenosine receptor A2a (Homo sapiens)
- Sequence (P29274 whole entry): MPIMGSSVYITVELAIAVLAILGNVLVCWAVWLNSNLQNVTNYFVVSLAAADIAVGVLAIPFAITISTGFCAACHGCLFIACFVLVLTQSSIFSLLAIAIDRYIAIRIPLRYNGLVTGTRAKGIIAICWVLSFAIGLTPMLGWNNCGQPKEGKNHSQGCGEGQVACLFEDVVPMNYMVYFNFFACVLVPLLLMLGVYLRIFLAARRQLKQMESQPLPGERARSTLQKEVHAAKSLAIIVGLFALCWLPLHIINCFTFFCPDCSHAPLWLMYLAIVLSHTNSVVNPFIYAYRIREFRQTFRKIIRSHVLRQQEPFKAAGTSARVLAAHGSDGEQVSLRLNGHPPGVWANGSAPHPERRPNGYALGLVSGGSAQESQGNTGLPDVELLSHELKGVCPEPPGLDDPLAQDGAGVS
- assay_name: biochemical
- Description: Displacement of [3H]-SCH- 58261 from human adenosine A2A receptor expressed in CHO cells; range 8.7-10.2
reported_endpoint: Ki (nM)

| input_smiles | data_value |
| --- | --- |
| COc1ccc(NC(=O)Nc2nc3ccc(Cl)cc3c3nc(-c4ccco4)nn23)cc1 | 9.4 |

###

- system_name: Adenosine receptor A3 (Homo sapiens)
- Sequence (P0DMS8 whole entry): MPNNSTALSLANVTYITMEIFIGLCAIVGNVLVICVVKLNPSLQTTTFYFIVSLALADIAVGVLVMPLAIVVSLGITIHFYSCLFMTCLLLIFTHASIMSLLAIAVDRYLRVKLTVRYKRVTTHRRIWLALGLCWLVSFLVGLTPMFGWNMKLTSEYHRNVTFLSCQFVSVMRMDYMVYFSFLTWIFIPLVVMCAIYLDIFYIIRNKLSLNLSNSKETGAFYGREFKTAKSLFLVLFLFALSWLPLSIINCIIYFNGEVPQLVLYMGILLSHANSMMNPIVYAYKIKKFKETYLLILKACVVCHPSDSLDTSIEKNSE
- assay_name: biochemical
pKi: −log10 of the molar value.

| input_smiles | pKi |
| --- | --- |
| Nc1nc2n[nH]cc2c2nc(-c3ccco3)nn12 | 6.46 |

###

- system_name: Adenosine receptor A2b (Homo sapiens, UniProt P29275)
- Sequence (P29275 whole entry): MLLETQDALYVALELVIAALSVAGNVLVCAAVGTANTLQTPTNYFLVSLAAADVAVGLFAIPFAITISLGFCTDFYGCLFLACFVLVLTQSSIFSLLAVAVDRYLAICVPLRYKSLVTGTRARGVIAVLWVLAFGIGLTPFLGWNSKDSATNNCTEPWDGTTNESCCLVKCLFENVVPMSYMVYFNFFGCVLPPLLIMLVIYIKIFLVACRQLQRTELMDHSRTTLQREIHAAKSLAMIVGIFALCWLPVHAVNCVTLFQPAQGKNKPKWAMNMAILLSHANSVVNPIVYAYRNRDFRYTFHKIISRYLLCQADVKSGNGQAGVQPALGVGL
- assay_name: Displacement of [3H]-DPCPX from Adenosine A2b receptor expressed in CHO cells; range 8-18
- Assay type: cell-based
- test_conditions: in the assay text read “HEK-293 cells” for “CHO cells”
pKi: −log10 of the molar value.

| input_smiles | pKi |
| --- | --- |
| CC(C)=CCn1cc2c(nc(N)n3nc(-c4ccco4)nc23)n1 | 7.92 |

###

- system_name: Adenosine receptor A3 (Homo sapiens, UniProt P0DMS8)
- Sequence (P0DMS8 whole entry): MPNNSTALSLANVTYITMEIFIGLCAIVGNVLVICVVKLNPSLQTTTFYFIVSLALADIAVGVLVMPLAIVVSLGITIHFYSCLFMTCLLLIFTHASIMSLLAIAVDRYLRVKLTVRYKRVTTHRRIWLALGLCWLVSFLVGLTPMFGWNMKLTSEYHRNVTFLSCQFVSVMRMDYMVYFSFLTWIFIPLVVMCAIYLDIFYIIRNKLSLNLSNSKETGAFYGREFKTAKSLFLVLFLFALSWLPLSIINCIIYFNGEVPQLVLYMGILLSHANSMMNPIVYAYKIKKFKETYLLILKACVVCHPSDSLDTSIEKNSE
- assay_name: Displacement of [3H]MRE3008-F20 from human adenosine A3 receptor expressed in CHO cells; range 3228-3614
- Format: cell-based
reported_endpoint: Ki (µM)

| input_smiles | reported_endpoint | scale_unit | data_value |
| --- | --- | --- | --- |
| Nc1nc2nn(CCc3cccc4ccccc34)cc2c2nc(-c3ccco3)nn12 | Ki | µM | 3.42 |
